Procedure Summary: Primary qHTS for inhibitors of nuclear receptor binding SET domain protein 2 (NSD2) in an isogenic RCH-ACV NSD2 p.E1099K mutant (9B) (AID 1645876); note: nearly all actives have a fitted effect of over 70% in size
Experimental Parameters: RCH-ACV NSD2 E1099K (9B) viability, CellTiter-Glo, 72 h; series mostly up to 44.9 µM
Results filed as inconclusive are left out. Activity calls are given as the source filed them. Calls come from the whole dose curve; as a rule, active = well fitted inhibition curve with a large enough effect; inconclusive = small, poorly fitted or top-dose-only effect; inactive = flat fitted curve, though single readings scatter.
Hi! Could you answer with just one of these? active, inactive

// known answers, use as guide
Compound	Group Label
C[C@@H]1C[C@@H]([C@@H](O)C(C)(C)O)O[C@H]2C[C@@]3(C)C(=C12)C[C@H](O)[C@H]1[C@@]2(C)CCC(=O)C(C)(C)C2CC[C@@]13C (stereo partly drawn)	inactive
CC(C)C1=CC2C(CC[C@]2(C)O)[C@](C)(O)CC1 (stereo partly drawn)	inactive

Per the records of this test, what outcome belongs to CC(=O)c1ccc(O[C@@H]2O[C@H](CO)[C@@H](O)[C@H](O)[C@H]2O)cc1 ?
inactive

Okay, and O=C(Nc1ccc(S(=O)(=O)Nc2nccs2)cc1)C(c1ccccc1)c1ccccc1 ?
inactive

Okay, and C[C@@]12C[C@]3(O)O[C@H](O1)[C@]1(COC(=O)c4ccccc4)[C@H]3C[C@@]12O[C@@H]1O[C@H](CO)[C@@H](O)[C@H](O)[C@H]1O ?
inactive

Okay, and N#Cc1c(Oc2ccc(F)c(NC(=O)Cc3cccc(C(F)(F)F)c3)c2)ccc2nc(NC(=O)C3CC3)sc12 ?
active

Okay, and CC(C)C(=O)OC[C@H]1O[C@H](O[C@H]2O[C@H](CO)[C@@H](O)[C@H](O)[C@H]2O)[C@H](O)[C@@H](O)[C@@H]1O ?
inactive

Okay, and CC(C)=CCC/C(C)=C/CO[C@@H]1O[C@H](CO)[C@@H](O)[C@H](O)[C@H]1O ?
inactive

====

Tested on: CRL-7250
Procedure Summary: Cytotoxic Profiling of Annotated Libraries Using Quantitative High-Throughput Screening (AID 1296008); note: nearly all actives have a fitted effect of over 60% in size
Experimental Parameters: Five cell lines viability, CellTiter-Glo ATP luminescence, 48-72 h
Inconclusive results are not listed. The source made the active and inactive calls. Calls follow the shape of the dose curve; as a rule, active = well fitted inhibition curve with a large enough effect; inconclusive = small, poorly fitted or top-dose-only effect; inactive = flat fitted curve, though single readings scatter.
Hi! Could you answer with just one of these? active, inactive

Compound	Study Target	Group Label
C[C@H]1O[C@@H](O[C@H]2CC[C@@]3(C)C(CC[C@]4(C)C3CC=C3C5CC(C)(C)CC[C@]5(C(=O)O)CC[C@]34C(=O)O)C2(C)C)[C@H](O)[C@@H](O)[C@@H]1O (stereo partly drawn)	CRL-7250	inactive
C=C1C(=O)OC2C1CCC(=C)C1CC(OC(C)=O)C(=C)C12 (stereo not drawn)	CRL-7250	active
CC(C)c1c2cc(-c3ccnc(NC4CCC(NC5CCOCC5)CC4)n3)ccc2nn1C (stereo not drawn)	CRL-7250	active
O=C(O)c1ccccc1NC(=O)N1CCC(c2ccccc2C(F)(F)F)CC1	CRL-7250	inactive
COC(=O)c1ccccc1O[C@@H]1O[C@H](CO)[C@@H](O)[C@H](O)[C@H]1O[C@@H]1O[C@@H](C)[C@H](O)[C@@H](O)[C@H]1O	CRL-7250	inactive
C/C(=C\CCC(C)CCO)C(=O)O[C@@H]1[C@@H](O)[C@H](OC2OC=C(C(=O)O)C3CCC(C)(O)C23)O[C@H](CO)[C@H]1O (stereo partly drawn)	CRL-7250	inactive

Per the records of this test, what outcome belongs to CC1(C)CC[C@@]2(C(=O)O[C@@H]3O[C@H](CO)[C@@H](O)[C@H](O)[C@H]3O)C(C1)C1=CCC3[C@@]4(C)CC[C@@H](O[C@@H]5O[C@H](C(=O)O)[C@@H](O[C@@H]6OC[C@@H](O)[C@H](O)[C@H]6O)[C@H](O[C@@H]6OC[C@](O)(CO)[C@H]6O)[C@H]5O)C(C)(C)C4CC[C@@]3(C)[C@]1(C)C[C@H]2O (stereo partly drawn) ?
inactive

Okay, and O=C1NC(Cc2c[nH]c3ccccc23)C(=O)NC1Cc1cnc[nH]1 (stereo not drawn) ?
inactive

Okay, and CO[C@H]1/C=C/C=C/C=C/C[C@H](OC(=O)[C@@H](C)NC(=O)C2CCCCC2)[C@H](C)[C@@H](O)/C(C)=C/CCc2cc(O)cc(c2)NC(=O)C1 ?
active

====

Procedure Summary: Primary qHTS for inhibitors of nuclear receptor binding SET domain protein 2 (NSD2) in an RCH-ACV wild type WT cells (2C) (AID 1645877); note: nearly all actives have a fitted effect of over 70% in size
Experimental Parameters: RCH-ACV (leukaemia line) NSD2 WT (2C) viability, CellTiter-Glo, 72 h; series mostly up to 44.9 µM
Results filed as inconclusive are left out. Calls of active or inactive are those of the source. Calls follow the shape of the dose curve; as a rule, active = well fitted inhibition curve with a large enough effect; inconclusive = small, poorly fitted or top-dose-only effect; inactive = no such curve, though single readings can be large or run the other way.
Hi! Could you answer with just one of these? 1 = active, -1 = inactive

Compound	Group Label
Cc1ccc(NC(=O)c2ccc(CN3CC[C@H](N(C)C)C3)c(C(F)(F)F)c2)cc1Nc1nccc(-c2cncnc2)n1	1
COc1ccc(-c2cnc(-c3cccc4c3-c3ccccc3C4=O)o2)cc1	1
CO[C@H]1/C=C\O[C@@]2(C)Oc3c(C)c(O)c4c(O)c(c5c(nc6cc(C)ccn65)c4c3C2=O)NC(=O)/C(C)=C\C=C/[C@H](C)[C@H](O)[C@@H](C)[C@@H](O)[C@@H](C)[C@H](OC(C)=O)[C@@H]1C	1

Per the records of this test, what outcome belongs to CC(=O)O[C@@H]1[C@@H](O)[C@H](C)O[C@@H](O[C@H]2[C@@H]3C=CO[C@@H](O[C@@H]4O[C@H](CO)[C@@H](O)[C@H](O)[C@H]4O)[C@@H]3[C@@]3(CO)O[C@@H]23)[C@@H]1OC(=O)/C=C/c1ccccc1 ?
-1

Okay, and C[C@]12C=C[C@@]3(CCC4[C@](C)(CO)CCC[C@@]4(C)C3CC1)C2 (stereo partly specified) ?
-1

Okay, and CN[C@@H]1[C@H](O[C@H]2[C@H](O[C@@H]3[C@@H](O)[C@H](O)[C@@H](N=C(N)N)[C@H](O)[C@H]3N=C(N)N)O[C@@H](C)[C@]2(O)C=O)O[C@@H](CO)[C@H](O)[C@H]1O ?
-1

====

Tested on: HEK293
Procedure Summary: Cytotoxic Profiling of Annotated Libraries Using Quantitative High-Throughput Screening (AID 1296008); note: nearly all actives have a fitted effect of over 60% in size; for max response: % is set by controls: 0 for no effect and ±100 for the full control effect
Experimental Parameters: Five cell lines viability, CellTiter-Glo ATP luminescence, 48-72 h; hits give low values
Records with an inconclusive call do not appear.
Reported max response values for the following compounds.
Only the number, expressed in %, is required.

> print(dat)
                                   compound  reading
1            Cc1oc2ccccc2c1CNC(=O)NCc1cccs1    -27.1
2  OC[C@H]1O[C@@H](O[C@H]2[C@H](OCCc3ccccc3)O[C@H](CO)[C@@H](O)[C@@H]2O)[C@H](O)[C@@H](O)[C@@H]1O   -0.444
3  CC(C)=CCC/C(C)=C/CCC1(C)Oc2c(c(O)cc3c2CN(C(CCC(=O)O)C(=O)O)C3=O)CC1O (centres undefined)    -4.48

Query (compound): O=C(O)c1ccccc1NCCc1ccccc1 ; field requested: max response
1.97

Okay, and CC12CCC(OC3OC(CO)C(O)C(OC4OC(CO)C(O)C(O)C4O)C3O)CC1CCC1C2CCC2(C)/C(=C3/COC(=O)C3)CCC12O (centres undefined) ?
-1.14

Okay, and Nc1ncnc2c1ncn2CCNCCCCCO ?
4.45

====

System: CRL-7250
Procedure Summary: Cytotoxic Profiling of Annotated Libraries Using Quantitative High-Throughput Screening (AID 1296008); note: nearly all actives have a fitted effect of over 60% in size; for max response: % is set by controls: 0 for no effect and ±100 for the full control effect
Experimental Parameters: Five cell lines viability, CellTiter-Glo ATP luminescence, 48-72 h; hits give low values
Records with an inconclusive call do not appear.
Measured Metric: max response (%)
Only the number, expressed in %, is required.

Worked cases, max response given:
Molecule	Result Unit	max response
CC1(C)CC[C@]2(C(=O)O[C@@H]3O[C@H](CO)[C@@H](O)[C@H](O)[C@H]3O)CC[C@]3(C)C(=CCC4[C@@]5(C)C[C@@H](O)[C@H](O)[C@@](C)(CO)C5CC[C@]43C)C2[C@@H]1O (some centres undefined)	%	1.08
CC1=CCC2C(C)(C)CCC[C@]2(C)[C@@]12CC[C@](C)(CC(=O)O)O2 (some centres undefined)	%	-19.8
N#C[C@@H]1C[C@H](F)CN1C(=O)CNC1[C@H]2CN(C(=O)c3ccc(F)cc3)C[C@@H]12 (some centres undefined)	%	-1.2

Let us move to another entry and its max response.
Query (molecule): C=C1CCC2C(C)(C)CCC[C@]2(C)[C@H]1C/C=C(\CO)C(=O)C(=O)O (some centres undefined) ; field requested: max response
-8.85

====

Test system: Zika virus NS2B-NS3 protease (linked construct)
Procedure Summary: Primary screen NINDS Rhodamine qHTS for Zika virus inhibitors (AID 1347160); note: % is set by controls: 0 for no effect and ±100 for the full control effect; nearly all actives have a fitted effect of over 55% in size
Experimental Parameters: purified NS2B-NS3 protease, Rhodamine110 substrate fluorescence; series mostly up to 57.1 µM
Inconclusive results are not listed. The source made the active and inactive calls. Calls come from the whole dose curve; as a rule, active = well fitted inhibition curve with a large enough effect; inconclusive = small, poorly fitted or top-dose-only effect; inactive = no such curve, though single readings can be large or run the other way.
Measured Metric: outcome

Mol Smiles	Measured Metric	Reading
c1cn2cc(-c3ccc4cn[nH]c4c3)nc(Nc3ccc(N4CCOCC4)cc3)c2n1	outcome	inactive
CC(=O)O[C@@H]1[C@@H](OC(=O)/C=C/c2ccccc2)[C@@H](OC(C)=O)[C@H](O[C@H]2[C@@H]3C=CO[C@@H](O[C@@H]4O[C@H](CO)[C@@H](O)[C@H](O)[C@H]4O)[C@@H]3[C@@]3(CO)O[C@@H]23)O[C@H]1C	outcome	inactive
Cc1cc(N2CCN([C@@H]3CN[C@H](C(=O)N4CCSC4)C3)CC2)n(-c2ccccc2)n1	outcome	inactive
